tested on: HCT-15; test: NCI in vitro cancer screen, Colon Cancer; assay type: cell-based, human; details: Homo sapiens, HCT-15; read-out: LC50 (the source's name)
attribute.measured: CC50

chemical_smiles=COc1cc(/C=C/c2cc(O)cc(OC)c2CC=C(C)C)ccc1O attribute_measured=CC50 recorded_value="> 100 µM"
chemical_smiles=CC(C)=CCOc1cc(O)cc(/C=C/c2ccc(O)c(O)c2)c1 attribute_measured=CC50 recorded_value="> 100 µM"
chemical_smiles=COc1cc(O)cc(/C=C/c2ccc(O)c(O)c2)c1CC=C(C)C attribute_measured=CC50 recorded_value="> 100 µM"

* * *

A collection of compounds and their measured TGI
test system: COLO 205; assay: NCI in vitro cancer screen, Colon Cancer; type: cell-based, human; conditions: COLO 205
attribute.measured: TGI

chemical_smiles=CC(C)=CCOc1cc(O)cc(/C=C/c2ccc(O)c(O)c2)c1 attribute_measured=TGI recorded_value="23.0 µM"
chemical_smiles=COc1cc(/C=C/c2cc(O)cc(OC)c2CC=C(C)C)ccc1O attribute_measured=TGI recorded_value="16.1 µM"
chemical_smiles=CC(C)=CCc1c(O)cc(/C=C/c2ccc(O)c(O)c2)c(CC=C(C)C)c1O attribute_measured=TGI recorded_value="4.34 µM"

* * *

system: NCI-H23; experiment: NCI in vitro cancer screen, Non-Small Cell Lung Cancer; type: cell-based, human; conditions: Homo sapiens, NCI-H23
A collection of compounds and their measured LC50
attribute.measured: LC50

compound="COc1cc(O)cc(/C=C/c2ccc(O)c(O)c2)c1CC=C(C)C [USYDS9]" recorded_value="> 100 µM"
compound="COc1cc(/C=C/c2cc(O)cc(OCC=C(C)C)c2)ccc1O [USYDS2]" recorded_value="> 100 µM"
compound="COc1cc(/C=C/c2cc(O)c(CC=C(C)C)c(O)c2)ccc1O [USYDS13]" recorded_value="> 100 µM"

* * *

test system: IGROV1; assay: NCI in vitro cancer screen, Ovarian Cancer; type: cell-based, human; conditions: Homo sapiens, IGROV-1; IGROV1; read-out: LC50 (the source's name)
attribute.measured: CC50

chemical_smiles=CC(C)=CCOc1cc(O)cc(/C=C/c2ccc(O)c(O)c2)c1 recorded_value="> 100 µM"
chemical_smiles=COc1cc(O)cc(/C=C/c2ccc(O)c(O)c2)c1CC=C(C)C recorded_value="> 100 µM"
chemical_smiles=COc1cc(/C=C/c2cc(O)cc(OC)c2CC=C(C)C)ccc1O recorded_value="> 100 µM"

* * *

The listing below reports GI50 for molecules tested on CCRF-CEM.
attribute.measured: GI50 (nM)

chemical_smiles=CC(C)=CCc1c(O)cc(/C=C/c2ccc(O)cc2)c(CC=C(C)C)c1O recorded_value=2960
chemical_smiles=CC(C)=CCc1c(O)cc(/C=C/c2ccc(O)c(O)c2)c(CC=C(C)C)c1O recorded_value=2730
chemical_smiles=COc1cc(/C=C/c2cc(O)c(CC=C(C)C)c(O)c2)ccc1O recorded_value=6560
chemical_smiles=COc1cc(O)cc(/C=C/c2ccc(O)c(O)c2)c1CC=C(C)C recorded_value=2140
chemical_smiles=CC(C)=CCOc1cc(O)cc(/C=C/c2ccc(O)c(O)c2)c1 recorded_value=3500

* * *

system: HL-60 (TB); assay: NCI in vitro cancer screen, Leukemia; type: cell-based, human; conditions: Homo sapiens; HL-60 (TB); read-out: LC50 (the source's name)
A collection of compounds and their measured CC50
attribute.measured: CC50

compound="CC(C)=CCOc1cc(O)cc(/C=C/c2ccc(O)c(O)c2)c1 [USYDS4]" recorded_value="> 100 µM"
compound="COc1cc(/C=C/c2cc(O)c(CC=C(C)C)c(O)c2)ccc1O [USYDS13]" recorded_value="> 100 µM"
compound="COc1cc(/C=C/c2cc(O)cc(OCC=C(C)C)c2)ccc1O [USYDS2]" recorded_value="> 100 µM"

* * *

system: K-562; test: NCI in vitro cancer screen, Leukemia; type: cell-based, human; settings: Homo sapiens, K562; K-562
A collection of compounds and their measured GI50
attribute.measured: GI50 (nM)

chemical_smiles=COc1cc(O)cc(/C=C/c2ccc(O)c(O)c2)c1CC=C(C)C test_target=K-562 attribute_measured=GI50 units_text=nM recorded_value=330
chemical_smiles=COc1cc(/C=C/c2cc(O)cc(OC)c2CC=C(C)C)ccc1O test_target=K-562 attribute_measured=GI50 units_text=nM recorded_value=40
chemical_smiles=COc1cc(/C=C/c2cc(O)c(CC=C(C)C)c(O)c2)ccc1O test_target=K-562 attribute_measured=GI50 units_text=nM recorded_value=4080
chemical_smiles=COc1cc(/C=C/c2cc(O)cc(OCC=C(C)C)c2)ccc1O test_target=K-562 attribute_measured=GI50 units_text=nM recorded_value=480
chemical_smiles=CC(C)=CCOc1cc(O)cc(/C=C/c2ccc(O)c(O)c2)c1 test_target=K-562 attribute_measured=GI50 units_text=nM recorded_value=2350
chemical_smiles=CC(C)=CCc1c(O)cc(/C=C/c2ccc(O)c(O)c2)c(CC=C(C)C)c1O test_target=K-562 attribute_measured=GI50 units_text=nM recorded_value=2140

* * *

A collection of molecules and their measured CC50
system: MDA-MB-231 (MDA-MB-231/ATCC); experiment: NCI in vitro cancer screen, Breast Cancer; format: cell-based, human; conditions: Homo sapiens, MDA-MB-231; read-out: LC50 (the source's name)
attribute.measured: CC50

chemical_smiles=CC(C)=CCOc1cc(O)cc(/C=C/c2ccc(O)c(O)c2)c1 test_target="MDA-MB-231 (MDA-MB-231/ATCC)" recorded_value="> 100 µM"
chemical_smiles=COc1cc(/C=C/c2cc(O)c(CC=C(C)C)c(O)c2)ccc1O test_target="MDA-MB-231 (MDA-MB-231/ATCC)" recorded_value="> 100 µM"
chemical_smiles=COc1cc(O)cc(/C=C/c2ccc(O)c(O)c2)c1CC=C(C)C test_target="MDA-MB-231 (MDA-MB-231/ATCC)" recorded_value="> 100 µM"

Data provenance: patent US10696615B2
